Molecular target: D-Alanyl-D-Alanine ligase (Enterococcus hirae)
Sequence (Q47827 whole entry): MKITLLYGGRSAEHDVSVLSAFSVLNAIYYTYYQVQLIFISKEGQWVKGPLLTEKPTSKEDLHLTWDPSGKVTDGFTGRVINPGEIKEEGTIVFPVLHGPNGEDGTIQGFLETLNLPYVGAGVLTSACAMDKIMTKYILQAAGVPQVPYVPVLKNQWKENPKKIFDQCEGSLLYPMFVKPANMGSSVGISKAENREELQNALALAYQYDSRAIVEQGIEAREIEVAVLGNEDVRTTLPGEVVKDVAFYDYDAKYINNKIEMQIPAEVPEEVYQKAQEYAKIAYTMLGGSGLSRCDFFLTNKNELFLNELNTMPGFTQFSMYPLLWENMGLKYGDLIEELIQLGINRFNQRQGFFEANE
Assay: D-Alanyl-D-Alanine ligase inhibition in vitro
Format: biochemical
Details: inhibitor pre-incubated with enzyme 40 minutes at room temperature, then 37° C. for 30 minutes; 14C-D-alanine substrate; read-out: IC50 (μM), DAlaAla ligase inhibition
EXPERIMENTAL_ENDPOINT: IC50 (µM)
A number alone suffices; assume µM.

Worked cases, IC50 given:
COMPOUND	TARGET_OF_ASSAY	UNIT_ABBREV	IC50
CCCCCCCC(CP(=O)(O)C(C)N)C(=O)O (racemic)	D-Alanyl-D-Alanine ligase (Enterococcus hirae)	µM	12.5
CCC(CP(=O)(O)C(C)N)C(=O)O (racemic)	D-Alanyl-D-Alanine ligase (Enterococcus hirae)	µM	50

// next item, IC50 requested
**Q:** Request the reported IC50 associated with CC(N)P(=O)(O)CCC(=O)O (racemic)
**A:** 535
